# Target entity: IKZF1 (Homo sapiens (Human), UniProt Q13422+Q96SW2)
# Sequence (Q13422 whole entry): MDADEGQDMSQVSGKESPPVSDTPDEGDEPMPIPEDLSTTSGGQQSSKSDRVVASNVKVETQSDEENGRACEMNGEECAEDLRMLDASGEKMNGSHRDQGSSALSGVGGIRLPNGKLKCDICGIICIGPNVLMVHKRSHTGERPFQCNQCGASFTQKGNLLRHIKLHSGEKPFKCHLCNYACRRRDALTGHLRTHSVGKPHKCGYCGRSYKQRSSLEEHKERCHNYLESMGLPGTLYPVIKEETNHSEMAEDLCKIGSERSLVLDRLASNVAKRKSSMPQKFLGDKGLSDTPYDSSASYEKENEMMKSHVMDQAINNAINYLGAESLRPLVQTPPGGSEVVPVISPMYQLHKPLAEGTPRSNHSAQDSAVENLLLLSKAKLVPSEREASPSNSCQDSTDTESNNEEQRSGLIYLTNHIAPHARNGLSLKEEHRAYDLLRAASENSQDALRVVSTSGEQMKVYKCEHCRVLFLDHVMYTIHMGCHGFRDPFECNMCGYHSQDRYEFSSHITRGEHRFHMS
# Sequence (Q96SW2 whole entry): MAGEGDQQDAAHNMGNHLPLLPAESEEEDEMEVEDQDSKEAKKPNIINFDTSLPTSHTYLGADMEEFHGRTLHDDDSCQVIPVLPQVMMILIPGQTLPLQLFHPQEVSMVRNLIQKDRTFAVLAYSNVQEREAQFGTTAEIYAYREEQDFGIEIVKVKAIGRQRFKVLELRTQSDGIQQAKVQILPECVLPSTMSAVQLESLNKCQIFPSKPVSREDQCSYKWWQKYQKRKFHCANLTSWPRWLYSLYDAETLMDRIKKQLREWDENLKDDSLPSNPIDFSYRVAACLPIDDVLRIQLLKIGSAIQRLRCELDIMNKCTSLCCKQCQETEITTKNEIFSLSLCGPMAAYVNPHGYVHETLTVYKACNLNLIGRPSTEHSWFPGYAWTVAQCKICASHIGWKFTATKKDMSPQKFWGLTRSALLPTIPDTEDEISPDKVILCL
# Sequence (Q16531 2-1140 partner): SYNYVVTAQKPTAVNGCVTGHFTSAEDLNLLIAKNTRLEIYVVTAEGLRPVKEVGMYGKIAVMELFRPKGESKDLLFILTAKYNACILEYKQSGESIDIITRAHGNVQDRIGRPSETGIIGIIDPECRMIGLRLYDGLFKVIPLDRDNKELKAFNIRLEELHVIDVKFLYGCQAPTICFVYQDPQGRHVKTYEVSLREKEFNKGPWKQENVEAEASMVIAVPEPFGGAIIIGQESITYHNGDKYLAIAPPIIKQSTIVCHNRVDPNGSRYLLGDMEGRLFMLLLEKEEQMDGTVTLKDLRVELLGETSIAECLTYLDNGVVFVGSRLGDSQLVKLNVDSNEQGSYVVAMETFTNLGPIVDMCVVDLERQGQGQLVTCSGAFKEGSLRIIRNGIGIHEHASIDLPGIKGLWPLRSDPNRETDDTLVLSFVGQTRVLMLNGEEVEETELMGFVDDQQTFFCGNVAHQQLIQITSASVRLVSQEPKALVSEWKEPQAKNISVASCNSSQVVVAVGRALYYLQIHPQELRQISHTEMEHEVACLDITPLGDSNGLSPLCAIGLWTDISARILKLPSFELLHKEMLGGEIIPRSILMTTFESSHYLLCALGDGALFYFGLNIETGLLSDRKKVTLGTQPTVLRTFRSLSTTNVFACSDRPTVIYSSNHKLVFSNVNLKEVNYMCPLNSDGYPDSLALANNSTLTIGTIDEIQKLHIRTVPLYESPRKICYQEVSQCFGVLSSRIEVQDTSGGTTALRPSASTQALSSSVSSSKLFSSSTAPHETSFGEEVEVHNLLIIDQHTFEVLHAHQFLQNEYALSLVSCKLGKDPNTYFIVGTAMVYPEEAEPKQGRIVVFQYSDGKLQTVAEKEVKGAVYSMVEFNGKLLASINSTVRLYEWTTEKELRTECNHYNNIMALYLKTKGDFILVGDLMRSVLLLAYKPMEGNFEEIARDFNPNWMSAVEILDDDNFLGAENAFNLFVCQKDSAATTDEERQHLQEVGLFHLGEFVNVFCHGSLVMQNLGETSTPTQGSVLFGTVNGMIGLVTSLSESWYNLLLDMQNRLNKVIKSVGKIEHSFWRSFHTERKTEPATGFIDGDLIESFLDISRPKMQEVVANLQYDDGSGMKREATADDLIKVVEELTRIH
# Measurement protocol: In vitro IKZF1 HiBit Assay (HEK293T Flp-in-HiBiT-IKZF1 stable cell line)
# Type: cell-based
# Measurement setup: HEK-293T; HEK293T Flp-in-HiBiT-IKZF1 stable cell line, 6 hrs incubation; read-out: IKZF1 HiBit Dmax (%)
Give measured Dmax for each item. Keep answers brief.

Prompt: Form field: Dmax recorded for O=C1CCC(N2Cc3cc(-c4cc(CN5CCCC5)c5c(n4)CCCC5)ccc3C2=O)C(=O)N1 (centres unmarked) with IKZF1 (Homo sapiens (Human), UniProt Q13422+Q96SW2) (enter value)
Response: 20 to 40%

Prompt: # returns recorded Dmax (system: IKZF1 (Homo sapiens (Human), UniProt Q13422+Q96SW2)) for CCNc1n[nH]c2c(CN3CCCC3)cc(-c3ccc4c(c3F)CN(C3CCC(=O)NC3=O)C4=O)nc12 (centres unmarked)
Response: 40 to 60%

Prompt: Recall the recorded Dmax for Cn1ccc2c(CN3CCC(CO)C3)cc(-c3ccc4c(c3)CN(C3CCC(=O)NC3=O)C4=O)nc21 (centres unmarked) with IKZF1 (Homo sapiens (Human), UniProt Q13422+Q96SW2) and state it.
Response: 20 to 40%

Prompt: // lookup Dmax | system=IKZF1 (Homo sapiens (Human), UniProt Q13422+Q96SW2) | key= CO[C@H]1C[C@H](Oc2ccnc3c(CN4CCCC4)cc(-c4ccc5c(c4)CN(C4CCC(=O)NC4=O)C5=O)nc23)C1 (some centres unmarked)
Response: < 20%

Prompt: Give recorded Dmax with IKZF1 (Homo sapiens (Human), UniProt Q13422+Q96SW2) for the following compound: COC1CCN(Cc2cc(-c3ccc4c(c3F)CN(C3CCC(=O)NC3=O)C4=O)nc3c(NC(C)C)n[nH]c23)CC1 (centres unmarked)
Response: < 20%

Prompt: What is its Dmax for IKZF1 (Homo sapiens (Human), UniProt Q13422+Q96SW2)? Entry: O=C1CCC(N2Cc3cc(-c4nc(CN5CCCC5)c5ccn(C6CS(=O)(=O)C6)c5n4)ccc3C2=O)C(=O)N1 (centres unmarked)
Response: < 20%

Prompt: Can you look up Dmax on IKZF1 (Homo sapiens (Human), UniProt Q13422+Q96SW2) for O=C1CCC(N2Cc3cc(-c4cc(CN5CCCC5)c5c(ccn5CCO)n4)ccc3C2=O)C(=O)N1 (centres unmarked) ?
Response: < 20%

Prompt: Please state recorded Dmax (tested on IKZF1 (Homo sapiens (Human), UniProt Q13422+Q96SW2)) of O=C1CCC(N2Cc3cc(-c4cc(CN5CCCC5)c5ccn(-c6ccccc6)c5n4)ccc3C2=O)C(=O)N1 (centres unmarked)
Response: 20 to 40%

Prompt: Checklist item: Dmax tested on IKZF1 (Homo sapiens (Human), UniProt Q13422+Q96SW2), entry O=C1CCC(N2Cc3cc(-c4ncc5cc(CN6CCCC6)ccn45)ccc3C2=O)C(=O)N1 (centres unmarked) , value?
Response: < 20%

Prompt: Hi! What's the reported Dmax for O=C1CCC(N2Cc3cc(-c4cc(CN5CCCC5)c5ccn(C6CC6)c5n4)ccc3C2=O)C(=O)N1 (centres unmarked) on IKZF1 (Homo sapiens (Human), UniProt Q13422+Q96SW2)?
Response: 20 to 40%

Prompt: Recall the recorded Dmax for O=C1CCC(N2Cc3cc(-c4cc(CN5CCC6(CC5)CC6)cc5cncn45)ccc3C2=O)C(=O)N1 (centres unmarked) with IKZF1 (Homo sapiens (Human), UniProt Q13422+Q96SW2) and state it.
Response: < 20%

Prompt: # query: Dmax | item CC(C)n1ccc2nc(-c3ccc4c(c3)CN(C3CCC(=O)NC3=O)C4=O)cc(CN3CCCC3)c21 (centres unmarked) | system: IKZF1 (Homo sapiens (Human), UniProt Q13422+Q96SW2)
Response: 20 to 40%

Prompt: Param readout = Dmax; param system = IKZF1 (Homo sapiens (Human), UniProt Q13422+Q96SW2); param query = O=C1CCC(N2Cc3cc(-c4cc(CN5CCCC5)c5c(ccn5C5CC5)n4)ccc3C2=O)C(=O)N1 (centres unmarked) ; response: value
Response: 20 to 40%

Prompt: Value wanted: Dmax (IKZF1 (Homo sapiens (Human), UniProt Q13422+Q96SW2)) of entry Cn1ccc2c(CN3CCC3c3ccccc3)cc(-c3ccc4c(c3)CN(C3CCC(=O)NC3=O)C4=O)nc21 (centres unmarked)
Response: 20 to 40%

Prompt: Kindly state the measured Dmax obtained for CC(C)C1CN(Cc2cc(-c3ccc4c(c3)CN(C3CCC(=O)NC3=O)C4=O)nc3[nH]ccc23)CC1O (centres unmarked) with IKZF1 (Homo sapiens (Human), UniProt Q13422+Q96SW2).
Response: 20 to 40%

Prompt: Give Dmax (IKZF1 (Homo sapiens (Human), UniProt Q13422+Q96SW2)) of the following compound: Cn1ccc2c(CN3CC4COCC(C4)C3)cc(-c3ccc4c(c3)CN(C3CCC(=O)NC3=O)C4=O)nc21 (centres unmarked)
Response: < 20%

Prompt: Value wanted: Dmax (IKZF1 (Homo sapiens (Human), UniProt Q13422+Q96SW2)) of entry Nc1n[nH]c2c(CN3CCCC3)cc(-c3ccc4c(c3)CN(C3CCC(=O)NC3=O)C4=O)nc12 (centres unmarked)
Response: < 20%

Prompt: Return Dmax measured with IKZF1 (Homo sapiens (Human), UniProt Q13422+Q96SW2) given this compound: CC(C)CC1CCN(Cc2cc(-c3ccc4c(c3)CN(C3CCC(=O)NC3=O)C4=O)nc3[nH]ccc23)C1 (centres unmarked)
Response: 40 to 60%

Prompt: Give the reported Dmax for Cn1ccc2c(Cn3ccnc3)cc(-c3ccc4c(c3)CN(C3CCC(=O)NC3=O)C4=O)nc21 (centres unmarked) (system: IKZF1 (Homo sapiens (Human), UniProt Q13422+Q96SW2)).
Response: < 20%

Prompt: Find Dmax (IKZF1 (Homo sapiens (Human), UniProt Q13422+Q96SW2)) for the entry O=C1CCC(N2Cc3cc(-c4cc(CN5CCCC5)c5cccc(C6CCC6)c5n4)ccc3C2=O)C(=O)N1 (centres unmarked)
Response: < 20%

Prompt: Fill in the recorded Dmax for this compound, with IKZF1 (Homo sapiens (Human), UniProt Q13422+Q96SW2) as test system: Cn1ccc(-n2ccc3c(CN4CCCC4)cc(-c4ccc5c(c4)CN([C@H]4CCC(=O)NC4=O)C5=O)nc32)n1
Response: < 20%

Prompt: Entry O=C1CCC(N2Cc3cc(-c4cc(CN5CCCC5)c5cnn(C6COC6)c5n4)ccc3C2=O)C(=O)N1 (centres unmarked) , system IKZF1 (Homo sapiens (Human), UniProt Q13422+Q96SW2): what Dmax was measured?
Response: 20 to 40%

Prompt: IKZF1 (Homo sapiens (Human), UniProt Q13422+Q96SW2) / Dmax / Nc1n[nH]c2c(CN3CCC(O)C3)cc(-c3ccc4c(c3)CN(C3CCC(=O)NC3=O)C4=O)nc12 (centres unmarked) : value?
Response: < 20%

Prompt: # returns recorded Dmax (system: IKZF1 (Homo sapiens (Human), UniProt Q13422+Q96SW2)) for O=C1CCC(N2Cc3cc(-c4nc(CN5CCCC5)c5ccn(C6CCC6)c5n4)ccc3C2=O)C(=O)N1 (centres unmarked)
Response: < 20%

Prompt: Test system IKZF1 (Homo sapiens (Human), UniProt Q13422+Q96SW2); read-out Dmax; what value for CCc1c(-c2ccc3c(c2)CN(C2CCC(=O)NC2=O)C3=O)nc2c(ccn2C2COC2)c1CN1CCCC1 (centres unmarked) ?
Response: < 20%

Prompt: What is its Dmax for IKZF1 (Homo sapiens (Human), UniProt Q13422+Q96SW2)? Entry: CC(C)Oc1ccnc2c(CN3CCCC3)cc(-c3ccc4c(c3)CN(C3CCC(=O)NC3=O)C4=O)nc12 (centres unmarked)
Response: < 20%

Prompt: I'm curious: which Dmax was measured for CC(C)CC1CN(Cc2cc(-c3ccc4c(c3)CN(C3CCC(=O)NC3=O)C4=O)nc3[nH]ccc23)CC1O (centres unmarked) tested on IKZF1 (Homo sapiens (Human), UniProt Q13422+Q96SW2)?
Response: 20 to 40%

Prompt: Lab note: need Dmax with IKZF1 (Homo sapiens (Human), UniProt Q13422+Q96SW2) for entry CC(C)Nc1n[nH]c2c(CN3CCCC3)cc(-c3ccc4c(c3)CN(C35CC(C3)C(=O)NC5=O)C4=O)nc12 , please look it up.
Response: < 20%

Prompt: What is its Dmax for IKZF1 (Homo sapiens (Human), UniProt Q13422+Q96SW2)? Entry: CC(=O)N1CC(n2ccc3c(CN4CCCC4)cc(-c4ccc5c(c4)CN(C4CCC(=O)NC4=O)C5=O)nc32)C1 (centres unmarked)
Response: < 20%
